Study system: B. subtilis BshA (Bacillus subtilis, UniProt P42982)
Sequence (P42982 whole entry): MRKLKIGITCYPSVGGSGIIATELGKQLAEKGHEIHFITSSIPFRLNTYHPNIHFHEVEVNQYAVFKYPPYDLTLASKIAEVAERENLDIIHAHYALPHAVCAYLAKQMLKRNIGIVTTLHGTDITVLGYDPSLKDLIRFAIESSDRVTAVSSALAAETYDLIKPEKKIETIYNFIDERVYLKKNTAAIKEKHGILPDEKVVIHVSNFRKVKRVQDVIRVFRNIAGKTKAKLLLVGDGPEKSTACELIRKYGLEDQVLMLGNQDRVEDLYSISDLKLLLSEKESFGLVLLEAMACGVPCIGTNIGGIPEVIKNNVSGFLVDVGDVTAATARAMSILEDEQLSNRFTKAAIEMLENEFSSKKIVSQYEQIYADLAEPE
Experimental endpoint: IC50
# answer = value followed by unit

Tell me measured IC50 for "N[C@@H](CS)C(=O)N[C@H]1[C@@H](O[C@@H](CC(=O)O)C(=O)O)O[C@H](CO)[C@@H](O)[C@@H]1O" please.
700 µM

Each recorded value in this set is attributed to paper PMC3668096.
